- protocol summary: Pharmacokinetics of compound I-1 in the dog by intravenous, oral gavage and oral capsule routes
- Format: in vivo, beagle dogs
- run parameters: male, beagle, dog, plasma, oral, 7 mg/kg, Group 3: PO Capsule 7 mg/kg; 8 h; Subject 2; read-out: Concentration at time point
- Description: A pharmacokinetic study was conducted to compare the bioavailability of capsule and suspension oral formulations vs. an intravenous formulations. The standard curve was prepared from 1 to 2,000 ng/mL. QC samples were prepared at 30, 30, and 750 ng/mL. […] The resulting supernatants were analyzed by LCMS. […] The I-1 100 mg capsules are manufactured as a non-sterile spray dried, granulated powder blend. […] The quantitative composition of the I-1 100 mg capsule is presented above in Table B. […]
measure: concentration at 8 h (ng/mL)
Reply numerically in ng/mL, unit not repeated.

Quick one: concentration at 8 h for CC(C)(O)c1nc2ccccc2cc1N [I-1] ? 147

====

- protocol summary: Pharmacokinetics of compound I-1 in the dog by intravenous, oral gavage and oral capsule routes
- Type: in vivo, beagle dogs
- run parameters: male, beagle, dog, plasma, oral, 7 mg/kg, Group 3: PO Capsule 7 mg/kg; 0.5 h; Average; read-out: Concentration at time point
measure: concentration at 0.5 h (ng/mL)
// units = ng/mL; emit number, no label

Could you share which concentration at 0.5 h value was measured for CC(C)(O)c1nc2ccccc2cc1N [I-1] ? 97.4

====

- protocol summary: Pharmacokinetics of compound I-1 in the dog by intravenous, oral gavage and oral capsule routes
- Format: in vivo, beagle dogs
- run parameters: male, beagle, dog, plasma, po, 7.2 mg/kg, 100 mg Capsule, average dose 7.2 mg/kg; Subj3
measure: Tmax (h)
Just the number please, in h, no unit attached.

Need Tmax of CC(C)(O)c1nc2ccccc2cc1N , thanks. 2.16

====

- protocol summary: Pharmacokinetics of compound I-1 in the dog by intravenous, oral gavage and oral capsule routes
- Assay type: in vivo, beagle dogs
- run parameters: male, beagle, dog, plasma, iv, 3 mg/kg, Group 1: IV 3 mg/kg; 8 h; Subject 2; read-out: Concentration at time point
measure: concentration at 8 h (ng/mL)
Report the figure in ng/mL without appending any unit label.

What does the data say about its concentration at 8 h? Entry: CC(C)(O)c1nc2ccccc2cc1N [I-1] 55.4

====

- protocol summary: Pharmacokinetics of compound I-1 in the dog by intravenous, oral gavage and oral capsule routes
- Format: in vivo, beagle dogs
- run parameters: male, beagle, dog, plasma, po, 7.2 mg/kg, 100 mg Capsule, average dose 7.2 mg/kg; Subj2
measure: AUC(0-inf) (ng·h/mL)
Give just the numeric value; ng·h/mL need not be written.

What value of AUC(0-inf) has been reported for the following compound? CC(C)(O)c1nc2ccccc2cc1N 5610

====

- protocol summary: Pharmacokinetics of compound I-1 in the dog by intravenous, oral gavage and oral capsule routes
- Type: in vivo, beagle dogs
- run parameters: male, beagle, dog, plasma, po, 10 mg/kg, Group 2: PO Gavage 10 mg/kg; 2 h; Subject 1; read-out: Concentration at time point
measure: concentration at 2 h (ng/mL)
// note: answer is a bare numeric in ng/mL

# lookup: concentration at 2 h of CC(C)(O)c1nc2ccccc2cc1N [I-1] 1890

====

- protocol summary: Pharmacokinetic comparison of ADX-102 (reproxalap) and compound I-1 in rats
- Format: in vivo, Sprague-Dawley rats
- run parameters: SD Rat; oral gavage 10 mg/kg; CMC/Tween
measure: Tmax (min)
State the answer as a number, implicitly in min.

Would you kindly share the measured Tmax for CC(C)(O)c1nc2ccc(Cl)cc2cc1N ? 30

====

- protocol summary: Pharmacokinetics of compound I-1 in the dog by intravenous, oral gavage and oral capsule routes
- Type: in vivo, beagle dogs
- run parameters: male, beagle, dog, plasma, po, 7.2 mg/kg, 100 mg Capsule, average dose 7.2 mg/kg; Average
measure: Cmax (ng/mL)
The response must be a number in ng/mL with no trailing unit.

Sample CC(C)(O)c1nc2ccccc2cc1N [I-1] — what was its Cmax? 1700

====

- protocol summary: Pharmacokinetics of compound I-1 in the dog by intravenous, oral gavage and oral capsule routes
- Format: in vivo, beagle dogs
- run parameters: male, beagle, dog, plasma, iv, 3 mg/kg, Intravenous - 3 mg/kg; Subj3
measure: clearance

Request the reported clearance associated with CC(C)(O)c1nc2ccccc2cc1N 13.3 mL/min/kg

====

- protocol summary: Phase 1 clinical trial, multiple ascending dose (MAD) pharmacokinetics
- Format: in vivo, human
- run parameters: human, in vivo, po, 350 mg, oral 350 mg BID; Day 1; read-out: Mean Cmax
measure: Cmax

Fill in the blank: the reported Cmax of CC(C)(O)c1nc2ccccc2cc1N [I-1] is ____. ~1190 ng/mL

====

- protocol summary: Phase 1 clinical trial, multiple ascending dose (MAD) pharmacokinetics
- Assay type: in vivo, human
- run parameters: human, in vivo, po, 600 mg, oral 600 mg BID; Day 1; read-out: Mean AUC0-12
measure: AUC(0-t)

Please give the measured AUC(0-t) for this compound: CC(C)(O)c1nc2ccccc2cc1N [I-1] ~6450 ng·h/mL

====

- protocol summary: Pharmacokinetics of compound I-1 in the dog by intravenous, oral gavage and oral capsule routes
- Format: in vivo, beagle dogs
- run parameters: male, beagle, dog, plasma, oral, 7 mg/kg, Group 3: PO Capsule 7 mg/kg; 1 h; Subject 2; read-out: Concentration at time point
measure: concentration at 1 h (ng/mL)
Express the result in ng/mL but write the number alone.

Can you look up the measured concentration at 1 h of CC(C)(O)c1nc2ccccc2cc1N [I-1] for me? 254

====

- protocol summary: Pharmacokinetics of compound I-1 in the dog by intravenous, oral gavage and oral capsule routes
- Format: in vivo, beagle dogs
- run parameters: male, beagle, dog, plasma, oral, 7 mg/kg, Group 3: PO Capsule 7 mg/kg; 12 h; Average; read-out: Concentration at time point
measure: concentration at 12 h (ng/mL)
All answers are understood in ng/mL, so give the number only.

Given CC(C)(O)c1nc2ccccc2cc1N , state its recorded concentration at 12 h. 94.5

====

- protocol summary: Pharmacokinetics of compound I-1 in the dog by intravenous, oral gavage and oral capsule routes
- Type: in vivo, beagle dogs
- run parameters: male, beagle, dog, plasma, po, 10 mg/kg, Group 2: PO Gavage 10 mg/kg; 4 h; Average; read-out: Concentration at time point
measure: concentration at 4 h
Note to self: number, then unit, no commentary.

Which concentration at 4 h value belongs to CC(C)(O)c1nc2ccccc2cc1N ? 0.787 µg/mL

====

- protocol summary: Pharmacokinetics of compound I-1 in the dog by intravenous, oral gavage and oral capsule routes
- Format: in vivo, beagle dogs
- run parameters: male, beagle, dog, plasma, po, 10 mg/kg, Oral Gavage 0.5% Methylcellulose 10 mg/kg; Average
measure: Cmax (ng/mL)
Response body: numeric value in ng/mL, unit text excluded.

# Cmax lookup, item CC(C)(O)c1nc2ccccc2cc1N 3560

====

- protocol summary: Phase 1 clinical trial, multiple ascending dose (MAD) pharmacokinetics
- Format: in vivo, human
- run parameters: human, in vivo, po, 150 mg, oral 150 mg BID; Day 10; read-out: Mean Cmax
measure: Cmax
A bare number is not enough; add the unit after it.

Which Cmax is listed for CC(C)(O)c1nc2ccccc2cc1N ? 320 ng/mL

====

- protocol summary: Pharmacokinetics of compound I-1 in the dog by intravenous, oral gavage and oral capsule routes
- Assay type: in vivo, beagle dogs
- run parameters: male, beagle, dog, plasma, oral, 7 mg/kg, Group 3: PO Capsule 7 mg/kg; 2 h; Subject 2; read-out: Concentration at time point
- Procedure: A pharmacokinetic study was conducted to compare the bioavailability of capsule and suspension oral formulations vs. an intravenous formulations. The standard curve was prepared from 1 to 2,000 ng/mL. QC samples were prepared at 30, 30, and 750 ng/mL. […] The resulting supernatants were analyzed by LCMS. […] The I-1 100 mg capsules are manufactured as a non-sterile spray dried, granulated powder blend. […] The quantitative composition of the I-1 100 mg capsule is presented above in Table B. […]
measure: concentration at 2 h
Reply with the number and its unit after it.

For CC(C)(O)c1nc2ccccc2cc1N , what is its reported concentration at 2 h? 1320 ng/mL

====

- protocol summary: Pharmacokinetics of compound I-1 in the dog by intravenous, oral gavage and oral capsule routes
- Assay type: in vivo, beagle dogs
- run parameters: male, beagle, dog, plasma, iv, 3 mg/kg, Group 1: IV 3 mg/kg; 1 h; Subject 3; read-out: Concentration at time point
measure: concentration at 1 h
Please append the unit to your numeric answer.

Any idea what concentration at 1 h was measured for CC(C)(O)c1nc2ccccc2cc1N ? 1090 ng/mL

====

- protocol summary: Pharmacokinetics of compound I-1 in the dog by intravenous, oral gavage and oral capsule routes
- Format: in vivo, beagle dogs
- run parameters: male, beagle, dog, plasma, oral, 100 mg, Group 3: PO Capsule 7 mg/kg; 0.25 h; Subject 2; read-out: Concentration at time point
- Procedure: A pharmacokinetic study was conducted to compare the bioavailability of capsule and suspension oral formulations vs. an intravenous formulations. The standard curve was prepared from 1 to 2,000 ng/mL. QC samples were prepared at 30, 30, and 750 ng/mL. […] The resulting supernatants were analyzed by LCMS. […] The I-1 100 mg capsules are manufactured as a non-sterile spray dried, granulated powder blend. […] The quantitative composition of the I-1 100 mg capsule is presented above in Table B. […]
measure: concentration at 0.25 h

Name the recorded concentration at 0.25 h for CC(C)(O)c1nc2ccccc2cc1N . 71.5 ng/mL
